test system: A-549 (epithelial cancer cell line); assay: Antiproliferative assay, A-549; assay type: cell-based; conditions: Homo sapiens, A549, read-out: Antiproliferative activity IC50 ± SEM, A-549
observable: pIC50
Remember the convention: pIC50 equals -log10 of concentration in molar.

Req: Look at this compound and give its reported pIC50. CO/C=C/c1c(C(=O)NCCc2ccc(N(C)C)cc2)[nH]c2ccc(Cl)cc12 [Compound 5d]
Resp: 7.47

Req: Another: O=c1c2[nH]c3ccc(Cl)cc3c2ccn1CCc1ccccc1 [Compound 7a]
Resp: 7.28

Req: Another: CO/C=C/c1c(C(=O)NCCc2ccc(N3CCOCC3)cc2)[nH]c2ccc(Cl)cc12 [Compound 5g]
Resp: 7.52

Req: Another: CO/C=C/c1c(C(=O)NCCc2ccccc2)[nH]c2ccc(Cl)cc12 [Compound 5a]
Resp: 7.12

Req: Another: CO/C=C/c1c(C(=O)N2CCC(Cc3ccccc3)CC2)[nH]c2ccc(Cl)cc12 [Compound 6e]
Resp: 7.35

Req: Another: CO/C=C/c1c(C(=O)NC(CO)Cc2ccccc2)[nH]c2ccc(Cl)cc12 (centres unmarked) [Compound 6a]
Resp: 7.05

Req: Another: CO/C=C/c1c(C(=O)NCCc2cccc(N3CCCCC3)c2)[nH]c2ccc(Cl)cc12 [Compound 5c]
Resp: 7.35

Req: Another: CO/C=C/c1c(C(=O)NCCc2ccc(N3CCCC3C)cc2)[nH]c2ccc(Cl)cc12 (centres unmarked) [Compound 5f]
Resp: 7.55
